Sourced from the supplement of paper PMC10307832

# System: NCI-H3122
# ASSAY COMMENT: relative viability (nuclei count vs DMSO), 5 days (fraction); higher = more cells survive
# SETUP CONDITIONS: first compound 0.04 µM
// classify: if (relative viability < 0.9) Fulfilled else Not fulfilled

COMPOUND: Cc1sc2c(c1C)C(c1ccc(Cl)cc1)=N[C@@H](CC(=O)OC(C)(C)C)c1nnc(C)n1-2 [JQ1] + CC(=O)c1c(C)c2cnc(Nc3ccc(N4CCNCC4)cn3)nc2n(C2CCCC2)c1=O [Palbociclib] (partner 0.5 µM)
GROUP: Fulfilled
//
COMPOUND: Cc1sc2c(c1C)C(c1ccc(Cl)cc1)=N[C@@H](CC(=O)OC(C)(C)C)c1nnc(C)n1-2 [JQ1] + Nc1ncn([C@H]2C[C@H](O)[C@@H](CO)O2)c(=O)n1 [Decitabine] (partner 2 µM)
GROUP: Fulfilled
//
COMPOUND: Cc1sc2c(c1C)C(c1ccc(Cl)cc1)=N[C@@H](CC(=O)OC(C)(C)C)c1nnc(C)n1-2 [JQ1] + CC(C)C[C@H](NC(=O)[C@H](Cc1ccccc1)NC(=O)c1cnccn1)B(O)O [Bortezomib] (partner 0.002 µM)
GROUP: Not fulfilled
//
COMPOUND: Cc1sc2c(c1C)C(c1ccc(Cl)cc1)=N[C@@H](CC(=O)OC(C)(C)C)c1nnc(C)n1-2 [JQ1] + Cc1cc(Nc2cc(N3CCN(C)CC3)nc(Sc3ccc(NC(=O)C4CC4)cc3)n2)n[nH]1 [Tozasertib] (partner 0.1 µM)
GROUP: Fulfilled
//
COMPOUND: Cc1sc2c(c1C)C(c1ccc(Cl)cc1)=N[C@@H](CC(=O)OC(C)(C)C)c1nnc(C)n1-2 [JQ1] + CS(=O)(=O)CCNCc1ccc(-c2ccc3ncnc(Nc4ccc(OCc5cccc(F)c5)c(Cl)c4)c3c2)o1 [Lapatinib] (partner 2 µM)
GROUP: Not fulfilled

---

# Tested on: NCI-H2126
# ASSAY COMMENT: relative viability (nuclei count vs DMSO), 5 days (fraction); higher = more cells survive
# SETUP CONDITIONS: first compound 8 µM
relative viability values, listed per item
REPORTED PROPERTY: relative viability

COMPOUND: O=c1[nH]c2ccccc2n1C1CCN(CCCC(c2ccc(F)cc2)c2ccc(F)cc2)CC1 [Pimozide] + N=C(N)NC(=N)NCCc1ccccc1 [Phenformin] (partner 250 µM)
DATA VALUE: 0.584
//
COMPOUND: O=c1[nH]c2ccccc2n1C1CCN(CCCC(c2ccc(F)cc2)c2ccc(F)cc2)CC1 [Pimozide] + CC1(C)CCC(c2ccc(Cl)cc2)=C(CN2CCN(c3ccc(C(=O)NS(=O)(=O)c4ccc(N[C@H](CCN5CCOCC5)CSc5ccccc5)c(S(=O)(=O)C(F)(F)F)c4)cc3)CC2)C1 [Navitoclax] (partner 0.5 µM)
DATA VALUE: 0.868
//
COMPOUND: O=c1[nH]c2ccccc2n1C1CCN(CCCC(c2ccc(F)cc2)c2ccc(F)cc2)CC1 [Pimozide] + NC(=O)Nc1cc(-c2cccc(F)c2)sc1C(=O)N[C@H]1CCCNC1 [AZD7762] (partner 0.2 µM)
DATA VALUE: 1
//
COMPOUND: O=c1[nH]c2ccccc2n1C1CCN(CCCC(c2ccc(F)cc2)c2ccc(F)cc2)CC1 [Pimozide] + COc1cccc2cc(-c3nc([C@H]4CC[C@H](C(=O)O)CC4)n4ncnc(N)c34)[nH]c12 [OSI-027] (partner 0.5 µM)
DATA VALUE: 0.744

---

Let's look at some molecules and their measured relative viability.
# System: NCI-H1792
# ASSAY COMMENT: relative viability (nuclei count vs DMSO), 5 days (fraction); higher = more cells survive
# SETUP CONDITIONS: first compound 0.005 µM
REPORTED PROPERTY: relative viability

MOLECULE: Nc1ccn([C@@H]2O[C@H](CO)[C@@H](O)[C@@H]2O)c(=O)n1 [Cytarabine] + CS(=O)(=O)CCNCc1ccc(-c2ccc3ncnc(Nc4ccc(OCc5cccc(F)c5)c(Cl)c4)c3c2)o1 [Lapatinib] (partner 2 µM)
STUDY TARGET: NCI-H1792
REPORTED PROPERTY: relative viability
DATA VALUE: 0.878
--
MOLECULE: COc1cc2nccc(Oc3ccc(NC(=O)Nc4cc(C)on4)c(Cl)c3)c2cc1OC [Tivozanib] + C[C@]1(O)C[C@@H](c2nc(-c3ccc4ccc(-c5ccccc5)nc4c3)c3c(N)nccn32)C1 [Linsitinib] (partner 1 µM)
STUDY TARGET: NCI-H1792
REPORTED PROPERTY: relative viability
DATA VALUE: 0.535
--
MOLECULE: COc1cc2nccc(Oc3ccc(NC(=O)Nc4cc(C)on4)c(Cl)c3)c2cc1OC [Tivozanib] + Nc1ncn([C@H]2C[C@H](O)[C@@H](CO)O2)c(=O)n1 [Decitabine] (partner 2 µM)
STUDY TARGET: NCI-H1792
REPORTED PROPERTY: relative viability
DATA VALUE: 0.514
--
MOLECULE: COc1cc2nccc(Oc3ccc(NC(=O)Nc4cc(C)on4)c(Cl)c3)c2cc1OC [Tivozanib] + N=C(N)NC(=N)NCCc1ccccc1 [Phenformin] (partner 250 µM)
STUDY TARGET: NCI-H1792
REPORTED PROPERTY: relative viability
DATA VALUE: 0.316
--
MOLECULE: Nc1ccn([C@@H]2O[C@H](CO)[C@@H](O)[C@@H]2O)c(=O)n1 [Cytarabine] + Cc1nc(NC(=O)N2CCC[C@H]2C(N)=O)sc1-c1ccnc(C(C)(C)C(F)(F)F)c1 [Alpelisib] (partner 2 µM)
STUDY TARGET: NCI-H1792
REPORTED PROPERTY: relative viability
DATA VALUE: 0.553

---

# Test system: NCI-H1734
# ASSAY COMMENT: relative viability (nuclei count vs DMSO), 5 days (fraction); higher = more cells survive
# SETUP CONDITIONS: first compound 0.253 µM
Collected relative viability values appear next to each entry.
REPORTED PROPERTY: relative viability

COMPOUND: Cc1cnc(-c2cnc(NCCNc3ccc(C#N)cn3)nc2-c2ccc(Cl)cc2Cl)[nH]1 + CCNC(=O)c1noc(-c2cc(C(C)C)c(O)cc2O)c1-c1ccc(CN2CCOCC2)cc1 [Luminespib] (partner 0.01 µM)
STUDY TARGET: NCI-H1734
REPORTED PROPERTY: relative viability
DATA VALUE: 0.199
//
COMPOUND: O=c1[nH]c2ccccc2n1C1CCN(CCCC(c2ccc(F)cc2)c2ccc(F)cc2)CC1 [Pimozide] + C[C@]1(O)C[C@@H](c2nc(-c3ccc4ccc(-c5ccccc5)nc4c3)c3c(N)nccn32)C1 [Linsitinib] (partner 1 µM)
STUDY TARGET: NCI-H1734
REPORTED PROPERTY: relative viability
DATA VALUE: 0.829

---

# Tested on: NCI-H1792
# ASSAY COMMENT: relative viability (nuclei count vs DMSO), 5 days (fraction); higher = more cells survive
# SETUP CONDITIONS: first compound 0.4 µM
Let's look at some molecules and their measured relative viability.
REPORTED PROPERTY: relative viability

MOLECULE: Cc1sc2c(c1C)C(c1ccc(Cl)cc1)=N[C@@H](CC(=O)OC(C)(C)C)c1nnc(C)n1-2 [JQ1] + Nc1nc2[nH]cc(CCc3ccc(C(=O)N[C@@H](CCC(=O)O)C(=O)O)cc3)c2c(=O)[nH]1 [Pemetrexed] (partner 0.2 µM)
STUDY TARGET: NCI-H1792
REPORTED PROPERTY: relative viability
DATA VALUE: 0.434

MOLECULE: Cc1sc2c(c1C)C(c1ccc(Cl)cc1)=N[C@@H](CC(=O)OC(C)(C)C)c1nnc(C)n1-2 [JQ1] + Cc1nc(NC(=O)N2CCC[C@H]2C(N)=O)sc1-c1ccnc(C(C)(C)C(F)(F)F)c1 [Alpelisib] (partner 2 µM)
STUDY TARGET: NCI-H1792
REPORTED PROPERTY: relative viability
DATA VALUE: 0.722

MOLECULE: Cc1sc2c(c1C)C(c1ccc(Cl)cc1)=N[C@@H](CC(=O)OC(C)(C)C)c1nnc(C)n1-2 [JQ1] + COc1cccc2cc(-c3nc([C@H]4CC[C@H](C(=O)O)CC4)n4ncnc(N)c34)[nH]c12 [OSI-027] (partner 0.5 µM)
STUDY TARGET: NCI-H1792
REPORTED PROPERTY: relative viability
DATA VALUE: 0.82

MOLECULE: Cc1sc2c(c1C)C(c1ccc(Cl)cc1)=N[C@@H](CC(=O)OC(C)(C)C)c1nnc(C)n1-2 [JQ1] + CS(=O)(=O)CCNCc1ccc(-c2ccc3ncnc(Nc4ccc(OCc5cccc(F)c5)c(Cl)c4)c3c2)o1 [Lapatinib] (partner 2 µM)
STUDY TARGET: NCI-H1792
REPORTED PROPERTY: relative viability
DATA VALUE: 0.916
